Sourced from the CombiSolv-Exp solvation set (Vermeire and Green 2021)

List of solvation free energy, 298 K values.
# protocol.text: solvent given as SMILES
# assay.conditions: in CCCCCO
Express the reported value numerically, then name its unit.

Known results for compounds:
INSERT INTO results (compound, experimental_result) VALUES
  ('Clc1ccccc1', '-5.21 kcal/mol'),
  ('c1cc2c3c(cccc3c1)CC2', '-8.68 kcal/mol'),
  ('C=CC=O', '-3.22 kcal/mol');

Retrieve solvation free energy, 298 K measured for `O=[N+]([O-])c1ccc(CCl)cc1` and print it. -8.4 kcal/mol

###

# protocol.text: solvent given as SMILES
# assay.conditions: in CCCC(C)O
Reported solvation free energy, 298 K values for a set of compounds
Response body: numeric value in kJ/mol, unit text excluded.

A selection of reference data follows.
INSERT INTO assay_data (chem_smiles, experimental_result) VALUES
  ('O=C(O)c1ccc([N+](=O)[O-])cc1', -50.2),
  ('c1ccc2c(c1)Cc1ccccc1O2', -39.5);

Retrieve solvation free energy, 298 K measured for `Cc1ccccc1C(=O)O` and print it. -37.6
